FYI, the data here is from patent US20160039825A1.

Experimental system: Human ATX protein (Homo sapiens, UniProt Q13822)
Construct: made in house
Assay notes: Autotaxin (ATX) assay, FRET with FS-3 substrate
Type: biochemical
Experimental context: upper bound bins (no greater than 100, 250 or 500 nM); FS-3 2 μM, ATX 1.0 μg/mL
pIC50: −log10 of the molar value.
Recorded pIC50 for the following molecules

{"columns": ["Molecule", "Result value"],
 "data": [
  ["CC1CN(C(=O)c2cc3n(n2)CCCN(C(=O)OCc2cc(C(F)(F)F)cc(C(F)(F)F)c2)C3)CC(C)N1 (centres unmarked)", "≥ 7.00"],
  ["CCN1CCN(c2cc3n(n2)CCCN(C(=O)OCc2cc(C(F)(F)F)cc(C(F)(F)F)c2)C3)CC1", "≥ 7.00"]
]}

Fill in: pIC50 on Human ATX protein (Homo sapiens, UniProt Q13822), entry O=C1CN(C(=O)c2cc3n(n2)CCCN(C(=O)OCc2cc(Cl)cc(C(F)(F)F)c2)C3)CCN1
≥ 7.00

Fill in: pIC50 on Human ATX protein (Homo sapiens, UniProt Q13822), entry CC1CNCCN1C(=O)c1cc2n(n1)CCN(C(=O)OCc1cc(C(F)(F)F)cc(C(F)(F)F)c1)C2 (centres unmarked)
≥ 7.00

Fill in: pIC50 on Human ATX protein (Homo sapiens, UniProt Q13822), entry O=C(OCc1cc(C(F)(F)F)cc(C(F)(F)F)c1)N1CCCn2nc(C(=O)N3CCC(F)CC3)cc2C1
≥ 7.00
